targetUnderTest: T1, Human CXCR2 (human, UniProt P25025 1-360)
T1 sequence: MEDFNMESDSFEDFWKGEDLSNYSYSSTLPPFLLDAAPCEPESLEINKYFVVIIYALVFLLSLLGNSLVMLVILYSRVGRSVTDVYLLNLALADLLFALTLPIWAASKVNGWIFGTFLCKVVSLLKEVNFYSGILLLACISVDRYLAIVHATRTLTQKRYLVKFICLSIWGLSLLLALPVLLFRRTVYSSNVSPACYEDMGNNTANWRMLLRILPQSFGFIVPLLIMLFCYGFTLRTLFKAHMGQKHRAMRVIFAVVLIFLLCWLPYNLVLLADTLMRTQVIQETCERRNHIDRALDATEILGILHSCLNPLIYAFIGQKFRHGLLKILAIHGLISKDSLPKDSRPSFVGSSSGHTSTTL
protocolDetails: cell-based or functional assay
endpoint: FLIPR IC50 (GRO-α induced calcium release) (nM)
Give the number; nM is assumed, so skip it.

163E3 (VHH, Tested as periplasmic extract (pAX50) and as purified His6-tagged protein (pAX100); also called 163E03; not shown: C-terminal c-myc tag and His6 tag coded by the vector) VHH: EVQLVESGGGLVQPGGSLRLSCVASGRIFSSNAMGWFRQAPGKEREFVAAITWRSGGSAYYADSAKGRFTISRDNAKNTVYLQMNSLKPEDTAVYYCAAGGSSWLSFPPDYWGQGTQVTVSS = 44.3
2B2 (VHH, Tested as periplasmic extract (pAX50) and as purified His6-tagged protein (pAX100); also called 002B02; not shown: C-terminal c-myc tag and His6 tag coded by the vector) VHH: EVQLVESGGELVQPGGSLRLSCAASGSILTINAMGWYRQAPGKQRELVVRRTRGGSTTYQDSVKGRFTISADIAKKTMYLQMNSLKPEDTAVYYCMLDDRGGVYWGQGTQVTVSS = 441

Now, please, on to the next binder.
Recorded FLIPR IC50 (GRO-α induced calcium release) of 97A9 (VHH, Tested as periplasmic extract (pAX50) and as purified His6-tagged protein (pAX100); also called 097A09; not shown: C-terminal c-myc tag and His6 tag coded by the vector) VHH: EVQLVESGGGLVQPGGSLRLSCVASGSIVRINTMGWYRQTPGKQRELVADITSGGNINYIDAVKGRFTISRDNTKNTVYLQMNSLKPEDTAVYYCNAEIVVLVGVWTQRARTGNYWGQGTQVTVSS , please. 39.9
